- Target Under Test: BChE from equine serum (Equus caballus, UniProt P81908)
- Construct: BChE from equine serum (Sigma); purchased Sigma; host or cells: equine serum
- Sequence (P81908 whole entry): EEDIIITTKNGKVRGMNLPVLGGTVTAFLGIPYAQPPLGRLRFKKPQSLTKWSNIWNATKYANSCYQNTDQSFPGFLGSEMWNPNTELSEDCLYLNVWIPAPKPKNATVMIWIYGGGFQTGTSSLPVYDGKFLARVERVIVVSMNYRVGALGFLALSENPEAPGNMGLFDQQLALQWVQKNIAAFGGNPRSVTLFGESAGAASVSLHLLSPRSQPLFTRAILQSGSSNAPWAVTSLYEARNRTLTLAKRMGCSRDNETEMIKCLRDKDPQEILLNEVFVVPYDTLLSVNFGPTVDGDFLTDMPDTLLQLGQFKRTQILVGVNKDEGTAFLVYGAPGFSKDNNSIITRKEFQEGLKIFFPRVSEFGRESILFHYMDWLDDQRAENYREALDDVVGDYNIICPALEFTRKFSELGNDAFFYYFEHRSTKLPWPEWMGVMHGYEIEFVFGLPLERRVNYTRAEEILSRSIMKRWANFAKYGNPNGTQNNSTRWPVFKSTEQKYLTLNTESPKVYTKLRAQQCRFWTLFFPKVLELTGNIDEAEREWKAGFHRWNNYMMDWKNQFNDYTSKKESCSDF
- Method Notes: biochemical
- Test Conditions: IC50 value, eqBChE 0.22 U/mL, Tris-HCl pH 8.0, 20 min preincubation at 37 °C, butyrylthiocholine iodide 0.5 mM, read at 412 nm
Recorded Endpoint: IC50

Requested read-out: IC50. Entry: NCCC1CCc2[nH]c3ccccc3c2C1 (stereo not shown)
39.7 µM

---

- Target Under Test: BChE from equine serum (Equus caballus)
- Construct: BChE from equine serum (Sigma); purchased Sigma; host or cells: equine serum
- Method Notes: biochemical
- Test Conditions: eqBChE 0.22 U/mL, Tris-HCl pH 8.0, 20 min preincubation at 37 °C, butyrylthiocholine iodide 0.5 mM, read at 412 nm; read-out: IC50 value
Recorded Endpoint: pIC50
pIC50 is a log-scale quantity: -log10 of the concentration expressed in molar.

| Molecule | pIC50 |
| --- | --- |
| OC(c1ccccc1)C(NCCNCc1ccccc1)c1ccccc1 (centres unmarked) | 4.65 |

Requested read-out: pIC50. Entry: O=C1CC2COc3ccc(OCCN4CCCC4)cc3C2=NN1c1ccccc1 (centres unmarked)
5.08
